Target: DN-IV quality control recombinant protein (produced by the company) (dengue virus)
Assay: BLI, antibody on AMC sensor
experimental endpoint: kon (M⁻¹ s⁻¹)
Give the number; M⁻¹ s⁻¹ is assumed, so skip it.

Q: I would be grateful if you could share the reported kon for Mutation 1-24 (antibody, V domains shown) VH: EVQLQQPGPELVKPGASVKMSCKASGYTFTSTVIHWVRQKPGQGLEWIGYMNPYNDGIKYNEKFIGKAILTSDKSSSTAYMQLSSLTSEDSAVYYCTREGLFYVMDYWGQGTSVTVSS VL: QIVLTQSPAIMSASPGEKVTMTCSATSSVSYMHWYQQKSGTSPKRWIYDTSKLASGVPVRFSGSGSGTSYSLTISSMEAEDAATYFCQYWRSDLPTFGAGTKLELKR .
A: 46600

Q: Same lookup for Mutation 1-22 (antibody, V domains shown) VH: EVQLQQPGPELVKPGASVKMSCKASGYTFTSSVIHWVRQKPGQGLEWIGYMNPYNDGLKYNEKFIGKAILTSDKSSSTAYMQLSSLTSEDSAVYYCTREGLFYVFDYWGQGTSVTVSS VL: QIVLTQSPAIMSASPGEKVTMTCSATSSVSYMHWYQQKSGTSPKRWIYDSSKLASGVPVRFSGSGSGTSYSLTISSMEAEDAATYFCQWWRSDLPTFGAGTKLELKR , please.
A: 415000
